- test-system: T1, Biotinylated CD96 antigen (human, UniProt P40200-2 22-503, limits assumed, biotinylated)
- T1 sequence (looked up): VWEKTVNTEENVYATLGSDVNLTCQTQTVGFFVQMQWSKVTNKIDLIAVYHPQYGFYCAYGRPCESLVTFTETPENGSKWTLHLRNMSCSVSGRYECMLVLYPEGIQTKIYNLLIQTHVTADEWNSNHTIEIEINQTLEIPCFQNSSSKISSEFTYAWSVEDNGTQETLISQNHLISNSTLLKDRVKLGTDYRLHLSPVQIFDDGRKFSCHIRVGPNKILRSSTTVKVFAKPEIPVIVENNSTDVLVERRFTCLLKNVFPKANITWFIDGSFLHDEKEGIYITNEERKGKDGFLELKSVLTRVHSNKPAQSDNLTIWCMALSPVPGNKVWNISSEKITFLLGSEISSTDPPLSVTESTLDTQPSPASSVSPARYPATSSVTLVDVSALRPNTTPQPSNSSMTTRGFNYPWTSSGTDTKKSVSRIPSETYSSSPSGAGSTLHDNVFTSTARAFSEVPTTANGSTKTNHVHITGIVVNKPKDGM
- test-description: competition ELISA, antibody B premixed with biotinylated CD96; competitor (coated antibody A): ch1720
# maps each entry to its competition (percent)
Report as a plain number; the unit % is understood.

Below: 2 binders and their reported competition (percent).
ch1720 (antibody, human IgG4 S228P, kappa, V domains shown, also called chimeric antibody corresponding to m1720) VH: EFQLQQSGPELVKPGASVKISCKASAYSLTDYNMNWVKQSNGKSLEWIGVINPSYGISSYNQKFKGKATLTVDQSSSTAYMHLNSLTSEDSAVYYCARQLRLPGYFDVWGTGTTVTVSS VL: DIKMTQSPSSKNASLGERVTITCKASQDINSYLNWFQQKPGKSPKTLIYRASRLVDGVPSRFSGSGSGQDYSLTISSLEYEDMGIYYCLKYDEFPYTFGGGTKLEIKR | 100
h1721-003 (antibody, V domains shown, Only variable regions are tied to this name; also called M721-003) VH: EVTLKESGPVLVKPTETLTLTCTVSGFSLSSYGVNWIRQPPGKALEWLGVIWGDGSTNYHSALISRLTISKDTSKSQVVLTLTNMDPVDTATYYCAKNYFYGSRYGYAMDSWGQGTTVTVSS VL: DIQMTQSPSSLSASVGDRVTITCRASENIYSSLAWYQQKPGKAPKLLIYNAKTLIEGVPSRFSGSGSGTDFTLTISSLQPEDFATYYCQHHYGTPYTFGGGTKVEIK | 92.6

The record that follows has no competition (percent) shown yet.
Quick check: competition (percent) of h1718-012 (antibody, V domains shown, Only variable regions are tied to this name) VH: EVQLVQSGAEVKKPGASVKVSCKASGYTITDYNMNWVRQAPGQRLEWIGVINPSYGITDYNQNFKDRVTITVDTSASTAYMELSSLRSEDTAVYYCAIQLRLPGYFDVWGQGTTVTVSS VL: DIQMTQSPSSLSASVGDRVTITCKASQDINQYLNWFQQKPGKAPKTLIYRANRLVDGVPSRFSGSGSGQDYTLTISSLQPEDFATYYCLKYDEFPYTFGGGTKVEIK ? 103

Values compiled from patent US20200347130A1.
